The measured values listed here are drawn from patent US20210038607A1.

- targetOrTestSystem: Human HDAC5 (Homo sapiens, UniProt Q9UQL6)
- Construct: full length with C-terminal His tag, MW=51.1 kDa; His (C); host or cells: baculovirus expression system
- Sequence (Q9UQL6 656-1122 limits assumed): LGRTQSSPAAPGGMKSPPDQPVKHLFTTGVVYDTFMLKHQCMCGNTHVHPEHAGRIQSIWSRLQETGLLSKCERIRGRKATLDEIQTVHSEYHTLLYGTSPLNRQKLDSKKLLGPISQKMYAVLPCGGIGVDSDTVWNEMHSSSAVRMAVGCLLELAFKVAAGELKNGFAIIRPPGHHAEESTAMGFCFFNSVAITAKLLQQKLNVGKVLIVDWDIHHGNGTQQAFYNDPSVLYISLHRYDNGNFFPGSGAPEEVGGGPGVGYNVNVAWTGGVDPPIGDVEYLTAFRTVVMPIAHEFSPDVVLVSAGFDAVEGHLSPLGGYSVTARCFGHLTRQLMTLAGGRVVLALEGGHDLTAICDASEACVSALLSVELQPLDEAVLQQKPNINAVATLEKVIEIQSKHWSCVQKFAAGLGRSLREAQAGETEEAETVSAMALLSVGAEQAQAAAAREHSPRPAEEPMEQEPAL
- methodNotes: HDAC5 biochemical assay, class IIa-specific substrate
- experimentalSetup: read-out: HDAC Isoform IC50 (nM) 5
propertyMeasured: IC50

* CC(F)(F)c1cnnc(N(Cc2ccc(-c3noc(C(F)(F)F)n3)s2)c2cnccn2)c1 [Example GU] | ≤ 10000 nM

*Q* Given the entry FC(F)(F)c1nc(-c2ccc(CN(c3cnccn3)c3cc(C4CC4)ccn3)s2)no1 [Example AH] , report its measured IC50.
*A* ≤ 10000 nM

*Q* If you can, please state the reported IC50 value of CN1CCN(C(=O)c2cnnc(N(Cc3ccc(-c4noc(C(F)(F)F)n4)s3)c3cnccn3)c2)CC1 [Example EC] .
*A* ≤ 10000 nM

*Q* IC50 for FC(F)(F)c1nc(-c2ccc(CN(c3cnccn3)c3ccc4nncn4n3)s2)no1 [Example DU] ?
*A* ≤ 10000 nM
